test system: Staphylococcus aureus 209 P JC-1; assay: in vitro antimicrobial activity, two-fold agar-plate dilution method, S. aureus 209 P JC-1; assay type: cell-based; details: 209PJC1, Table 1, S. aureus 209 P JC-1, 37° C., 20 hours, read-out: minimum inhibitory concentration (MIC)
reported metric: MIC (µg/mL)

1. CC1=C(C(=O)O)N2C(=O)C(NC(=O)C(OC(=O)c3ccncc3)c3ccccc3)C2SC1 (stereo not drawn) [cited compound (4), reference compound]    1.56

P = CC1=C(C(=O)O)N2C(=O)C(NC(=O)CC#N)[C@H]2SC1 (stereo partly drawn) [cited compound (13), reference compound]
Q = CC1=C(C(=O)O)N2C(=O)C(NC(=O)C(O)c3ccccc3)[C@H]2SC1 (stereo partly drawn) [cited compound (7), reference compound]
Problem: Parameter check: reported MIC is higher for which label, P or Q ? Answer by quoting the chosen item's label.
Solution: P

These measurements were taken from patent US4308380A.
